Measured composite z-score accompanies every entry in the list below.
- SYSTEM: Calmodulin-1 (Homo sapiens) (UniProt P0DP23)
- ASSAY_OVERVIEW: CALM1 binders on microarrays, EGTA buffer, profiling panel, biochemical, small-molecule microarray, Cy5-labelled CALM1 (AID 1111);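 note: labelled calmodulin applied in Tris saline Tween buffer holding calcium plus EGTA and DTT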
- ASSAY_CONTEXT: Cy5-CALM1 binding fluorescence, higher = more signal
Lab note: jot the number down without any unit.

Fill in the blank: the reported composite z-score of COC(=O)C1(Cc2ccccc2)C=C2C(=C(C(C)C)C(=O)C2C)CN1 (stereo not drawn) is ____.
1.09

###

- SYSTEM: Fibroblast growth factor 2 (Homo sapiens) (UniProt P09038)
- Sequence (P09038 whole entry, looked up): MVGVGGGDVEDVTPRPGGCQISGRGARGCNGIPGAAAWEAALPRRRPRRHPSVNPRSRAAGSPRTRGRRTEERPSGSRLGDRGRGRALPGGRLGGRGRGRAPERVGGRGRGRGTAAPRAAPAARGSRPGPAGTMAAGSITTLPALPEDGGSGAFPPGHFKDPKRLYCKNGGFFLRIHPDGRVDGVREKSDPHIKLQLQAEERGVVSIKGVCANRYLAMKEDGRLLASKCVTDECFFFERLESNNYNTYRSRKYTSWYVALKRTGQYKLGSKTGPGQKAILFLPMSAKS
- ASSAY_OVERVIEW: FGF2 binders on small-molecule microarrays, primary screen, biochemical, small-molecule microarray, 635/667 nm fluorescence (AID 1133)
- ASSAY_CONTEXT: small-molecule microarray binding, FGF2, fluorescence 635/667; higher = more signal
QUANTITY_MEASURED: composite z-score

Observe how each entry below is paired with its result.
| COMPOUND | REPORTED_VALUE |
| --- | --- |
| CCCN1C(=O)[C@]2(Cc3ccccc3)N=C(c3ccc(OCCCO)cc3)O[C@@H]2c2ccccc21 | 1.63 |
| COc1ccc([Si](C)(C)[C@@H]2[C@@H](CCO)O[C@]3(C(=O)N(Cc4cccc(N5C(=O)c6cccc7cccc5c67)c4)c4ccccc43)[C@H]2C)cc1 | -0.0148 |
| COc1ccc([Si](C)(C)[C@@H]2[C@@H](CCO)O[C@]3(C(=O)N(Cc4cccc(N5C(=O)c6ccccc6Oc6ccccc65)c4)c4ccccc43)[C@H]2C)cc1 | -0.559 |

Item under review: C[C@@H](OCc1ccccc1)C1NC(=O)[C@@]23C(=O)N[C@@H](Cc4ccccc4)C2[C@H](C)[C@@]2(C)O[C@H]2C3/C=C/C/C=C\CNC(=O)CNC1=O (some centres undefined) . Reported composite z-score?
-0.113

What value of composite z-score has been recorded for this entry: `Cc1ccc(S[C@]2(C(=O)NCC(C)C)CC(=O)N(Cc3ccccc3Cl)[C@@H]2c2ccc(CO)cc2I)cc1`
-0.131

Need composite z-score, item COc1cc(CO)cc(I)c1O[C@H]1C=C(C(=O)NCCO)C[C@@H](N(Cc2ccc(F)cc2)C(=O)C2CCCO2)[C@@H]1O (some centres undefined)
0.47

Data credit: PubChem BioAssay
